Kindly state koff for each of the entries shown.
# study system: Feline_OSMR_hlgG1_Fc (feline)
# Sequence (chain, as listed by the source limits assumed, form in doubt): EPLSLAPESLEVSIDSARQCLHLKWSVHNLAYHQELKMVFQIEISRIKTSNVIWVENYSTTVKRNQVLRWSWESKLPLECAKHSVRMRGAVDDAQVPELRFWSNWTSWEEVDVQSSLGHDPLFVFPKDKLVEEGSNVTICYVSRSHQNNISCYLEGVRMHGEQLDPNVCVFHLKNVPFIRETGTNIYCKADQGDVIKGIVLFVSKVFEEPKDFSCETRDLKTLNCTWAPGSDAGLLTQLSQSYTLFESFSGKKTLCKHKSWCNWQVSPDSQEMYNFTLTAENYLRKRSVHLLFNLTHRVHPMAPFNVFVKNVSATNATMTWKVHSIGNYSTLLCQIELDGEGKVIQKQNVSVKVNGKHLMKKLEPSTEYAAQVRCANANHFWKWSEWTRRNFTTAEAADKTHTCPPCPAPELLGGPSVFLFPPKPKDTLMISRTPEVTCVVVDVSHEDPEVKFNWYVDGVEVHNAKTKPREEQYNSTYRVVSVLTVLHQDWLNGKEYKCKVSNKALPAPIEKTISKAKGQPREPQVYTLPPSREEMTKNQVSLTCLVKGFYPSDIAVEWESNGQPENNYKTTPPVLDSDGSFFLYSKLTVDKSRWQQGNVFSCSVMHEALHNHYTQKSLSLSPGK
# method description: SPR Biacore
Numbers only; they are read as s⁻¹.

Qu. Look up and report measured koff for this entry: Mu_02D09_VH (SEQ ID NO: 31)_H35A (antibody, V domains shown) VH: EVQLVESGGGLVKPGGSLTLSCAASGFTFSDYGMAWLRQAPEKGLEWVAYISSGSRAVFFADTVKGRFTISRDNAKNTLFLQMTSLRSDDTAMYYCARDRYDGRGFAYWGQGTLVTVSA VL: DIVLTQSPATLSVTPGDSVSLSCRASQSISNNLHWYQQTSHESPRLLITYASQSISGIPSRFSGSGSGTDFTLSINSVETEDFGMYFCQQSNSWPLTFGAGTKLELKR
Ans. 0.00108

Qu. Write down koff measured for item Mu_10F07_VH (SEQ ID NO: 39)_I101A (antibody, V domains shown) VH: DVKLVESGEGLVKPGGSLKLSCAASGFTFSSYAMSWVRQTPEKRLEWVTYISSGGDYFYYADTVKGRFTISRDNARNTLYLQMSSLKSEDTAMYYCTRDPATGTFAYWGQGTLVTVSA VL: DIQMTQTTSSLSASLGDRVTISCRASQDITNYLNWYQQKPDGTVKLLIYYTSTLHSGVPSRFSGSGSGTDFSLTISNLEQEDIATYFCQQGHMLPWTFGGGTKLEIKR
Ans. 0.000701

Qu. Look up and state reported koff for Mu_02D09_VL (SEQ ID NO: 33)_W94A (antibody, V domains shown) VH: EVQLVESGGGLVKPGGSLTLSCAASGFTFSDYGMHWLRQAPEKGLEWVAYISSGSRAVFFADTVKGRFTISRDNAKNTLFLQMTSLRSDDTAMYYCARDRYDGRGFAYWGQGTLVTVSA VL: DIVLTQSPATLSVTPGDSVSLSCRASQSISNNLHWYQQTSHESPRLLITYASQSISGIPSRFSGSGSGTDFTLSINSVETEDFGMYFCQQSNSAPLTFGAGTKLELKR
Ans. 7.94e-08

Qu. // Input: Mu_19F07_VL (SEQ ID NO: 49)_T53A (antibody, V domains shown) VH: EVKLVESEGGLVQPGSSMKLSCTASGFTFSDYYMAWVRQVPEKGLEWVANINYDGSSTYYLDSLKSRFIISRDNAKNILYLQMSSLKSEDTATYYCARGLTWDFDVWGTGTTVTVSS VL: DIVMTQSHKFMSPSVGDRVSITCKASQDVDTAVAWYQQKPGQSPKLLIYLASARHTGVPDRFTGSGSGTDFTLTISNVQSEDLADYFCQQYSRFPLTFGAGTKLELKR . Output its koff only.
Ans. 9.05e-07
